B1: Homeobox protein cut-like 1, residues 941 to 1008; numbered along this chain, P39880 (parent)
chain: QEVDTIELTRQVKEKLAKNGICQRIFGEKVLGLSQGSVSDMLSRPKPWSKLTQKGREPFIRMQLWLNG

Variants of: B1
Assay: abundance fitness (aPCA) (normalised: wild type 0, dead -1); higher = more abundant; growth selection in yeast, the domain comes from the species named
Details: Homo sapiens
Assay endpoint: abundance fitness
// no unit string in output, number only

For record QEADTIELTRQVKEKLAKNGICQRIFGEKVLGLSQGSVSDMLSRPKPWSKLTQKGREPFIRMQLWLNG [V3A] the listed abundance fitness is -0.133

For record QEVDTIELTRQHKEKLAKNGICQRIFGEKVLGLSQGSVSDMLSRPKPWSKLTQKGREPFIRMQLWLNG [V12H] the listed abundance fitness is -0.142

For record QEVDTIELTRQVKEKLAKNGICQRIFGEKVNGLSQGSVSDMLSRPKPWSKLTQKGREPFIRMQLWLNG [L31N] the listed abundance fitness is -0.319

For record QEVDTIELTRQVKEKLAKNGICQRIFGEKVLGLSQGSVSDMLSRPKVWSKLTQKGREPFIRMQLWLNG [P47V] the listed abundance fitness is -0.079

For record QEVDTIELTRQVKEKLAKNGICQRKFGEKVLGLSQGSVSDMLSRPKPWSKLTQKGREPFIRMQLWLNG [I25K] the listed abundance fitness is -0.022

For record QEVDTIEDTRQVKEKLAKNGICQRIFGEKVLGLSQGSVSDMLSRPKPWSKLTQKGREPFIRMQLWLNG [L8D] the listed abundance fitness is 0.076

For record QEVDTIELTRQVKEKLAKNGICQRIFGEIVLGLSQGSVSDMLSRPKPWSKLTQKGREPFIRMQLWLNG [K29I] the listed abundance fitness is -0.57

For record QEVDTIELTRQQKEKLAKNGICQRIFGEKVLGLSQGSVSDMLSRPKPWSKLTQKGREPFIRMQLWLNG [V12Q] the listed abundance fitness is -0.143
